Tested on: Acinetobacter baumannii
Assay: Antimicrobial activity against Acinetobacter baumannii isolates by agar dilution method
Assay type: functional
Listing: MIC of selected molecules

Molecule	Measurement target	MIC
CO/N=C(\C(=O)N[C@@H]1C(=O)N2C(C(=O)[O-])=C(C[N+]3(C)CCCC3)CS[C@H]12)c1csc(N)n1 [CEFEPIME]	Acinetobacter baumannii	> 64 mg/L
CO/N=C(\C(=O)N[C@@H]1C(=O)N2C(C(=O)O)=C(COC(C)=O)CS[C@H]12)c1csc(N)n1 [CEFOTAXIME]	Acinetobacter baumannii	> 64 mg/L
C[C@H]1[C@H](NC(=O)/C(=N\OC(C)(C)C(=O)O)c2csc(N)n2)C(=O)N1S(=O)(=O)O [AZTREONAM]	Acinetobacter baumannii	> 64 mg/L
C[C@@H](O)[C@H]1C(=O)N2C(C(=O)O)=C(S[C@@H]3CN[C@H](C(=O)N(C)C)C3)[C@H](C)[C@H]12 [MEROPENEM]	Acinetobacter baumannii	16 mg/L
CC(C)(O/N=C(\C(=O)N[C@@H]1C(=O)N2C(C(=O)[O-])=C(C[n+]3ccccc3)CS[C@H]12)c1csc(N)n1)C(=O)O [CEFTAZIDIME]	Acinetobacter baumannii	> 64 mg/L
C[C@@H](O)[C@H]1C(=O)N2C(C(=O)O)=C(SCCNC=N)C[C@H]12 [IMIPENEM ANHYDROUS]	Acinetobacter baumannii	16 mg/L
